percent change in 14C-acetate incorporation into sterols at 0.01 µM: recorded values
# System: human hepatoma cells (HEP-G2)
# METHOD: Inhibition of 14C-acetate incorporation in digitonin-precipitatable steroids in HEP-G2 cells
# Type: cell-based
# DETAILS: Homo sapiens, HepG2, 10^-8 mol/l
# unit: % | format: bare number

For orientation, consider the following solved cases.
>  <MOLECULE_SMILES>
COc1ccc(C(=O)N2CCC(=Cc3ccc(C4=NCCO4)cc3)CC2)cc1

>  <DATA_VALUE>
-16

$$$$
>  <MOLECULE_SMILES>
O=C(C1CCCCC1)N1CCC(=Cc2ccc(C3=NCCO3)cc2)CC1

>  <DATA_VALUE>
-45

$$$$
>  <MOLECULE_SMILES>
O=C(c1ccc([N+](=O)[O-])cc1)N1CCC(=Cc2ccc(C3=NCCO3)cc2)CC1

>  <DATA_VALUE>
-22

$$$$
>  <MOLECULE_SMILES>
O=C(c1ccc(Cl)cc1)N1CCC(Cc2ccc(C3=NCCS3)cc2)CC1

>  <DATA_VALUE>
-5

$$$$

Proceeding to the next compound to report its percent change in 14C-acetate incorporation into sterols at 0.01 µM.
stdin: Requested field: percent change in 14C-acetate incorporation into sterols at 0.01 µM. Item: CC(=C1CCN(C(=O)c2ccc(Cl)cc2)CC1)c1ccc(C2=NCCO2)cc1
stdout: -35
